Numbers sourced from ChEMBL document CHEMBL1201862.

- System: CAKI-1
- assay.protocol: NCI tumour cell line growth inhibition, 48 h
Calls of active or inactive are those of the source. Cut-off read from the data, not from the text of the source: active = GI50 up to about 1.1 µM and inactive = higher. Peptide text beside a SMILES is read from it. * marks the point of attachment. Boc = CC(C)(C)OC(=O)*; OBn = c1ccc(CO*)cc1
measurement.type: GI50

compound | GI50
CC(C)CC(NC(=O)OC(C)(C)C)C(=O)NC(CC(=O)OCc1ccccc1)C(N)=O (stereo not drawn) (Boc-Leu-Asp(OBn)-NH2; configuration not given here) | > 100 µM (inactive)
CC1=C(C)C2(C#N)C(=O)N3C(=NC(c4ccccc4)NC3c3ccccc3)C2(C#N)C(c2ccccc2)N1 (stereo unspecified) | > 100 µM (inactive)
O=C(c1ccc(Cl)cc1)N1CCN=C1c1cc2ccccc2c2ccccc12 | 15.7 µM (inactive)
CN(C)c1ccc(/C=N\NC(=O)Nc2cccc3ccccc23)cc1 | 3.25 µM (inactive)
Nc1nc(S)c2c(N)n[nH]c2c1C(=O)Nc1ccccc1 | > 100 µM (inactive)
COc1ccccc1-n1c(C)nc2ccccc2c1=O | > 100 µM (inactive)
N#CC(NC12CC3CC(CC(C3)C1)C2)c1ccccc1C(F)(F)F (stereo unspecified) | > 100 µM (inactive)
CC/C=C\C/C=C\C1CC(=O)NCCCNCCCCN1 (stereo unspecified) | > 100 µM (inactive)

State its GI50: O=C(CC(=O)N1N=C(N2CCCCC2)CC1c1ccccc1)Nc1ccccc1 (stereo unspecified)
> 100 µM (inactive)

Respond only with GI50 recorded for O=c1[nH]nc(-c2ccccc2)n1-c1cccc([N+](=O)[O-])c1
89.5 µM (inactive)

In one line, give reported GI50 of the entry CN1C=COC1N=C1CCCCC1 (stereo unspecified) .
3.74 µM (inactive)

Give me measured GI50, please, for this compound: CN(C)CCCCN1c2ccccc2Sc2cc(N=[N+]=[N-])ccc21
1.84 µM (inactive)

Report GI50 for COC(=O)C12OC(C)(C(CC(=O)OC(C)(C)C)C1=O)C1C(=O)N(c3ccccc3)C(=O)C12 (stereo unspecified)
> 100 µM (inactive)

Report GI50 for O=Cc1[nH]c(=O)[nH]c(=O)c1C(=O)O
> 100 µM (inactive)

For the compound CN(C(=O)c1ccc([N+](=O)[O-])cc1)c1ccccc1 , give its reported GI50.
> 100 µM (inactive)

Answer with reported GI50 of O=C1/C(=N\NC(=S)NC2CCCCC2)c2cc([N+](=O)[O-])ccc2N1CN1CCOCC1
3.3 µM (inactive)

Fill in reported GI50 for this entry: C=C1C(=O)C=C[C@]2(C)CC[C@H]3C(=C)C(=O)O[C@@H]3[C@@H]12
2.22 µM (inactive)

Supply GI50 value. Item: C=CCC(CC=O)(C(=O)OCC)C(=O)OCC
> 100 µM (inactive)

Return GI50 (reported value) for this compound: Nc1ccc(O)c2c1C(=O)c1c(N)ccc(O)c1C2=O
> 100 µM (inactive)

Give reported GI50 value for CC(=O)Nc1cc2c(cc1O)CC[C@@H]1[C@@H]2CC[C@]2(C)[C@@H](O)CC[C@@H]12
84.1 µM (inactive)

Supply GI50 value. Item: O=C(/C=C/c1c(O)ccc2ccccc12)c1cccc(O)c1
> 100 µM (inactive)
